experiment: Stability in fasted simulated intestinal fluid (FaSSIF); details: 10 μM, pH 6.5, room temperature, 6 h
reported-property: FaSSIF Stability, % remaining, 6h (%)
Field: numeric (%). Do not append units.

Some entries whose results are on file:
| smiles-structure | reported-property | unit-abbreviation | result-number |
| --- | --- | --- | --- |
| CCc1nnc(SCC2=C(C(=O)O)N3C(=O)[C@@H](NC(=O)Cc4ccc(C5=NCCCN5)cc4)[C@H]3SC2)s1 | FaSSIF Stability, % remaining, 6h | % | 94.96 |
| CNCc1ccccc1CC(=O)N[C@@H]1C(=O)N2C(C(=O)O)=C(CSc3nnnn3C)CS[C@H]12 | FaSSIF Stability, % remaining, 6h | % | 83.23 |

FaSSIF Stability, % remaining, 6h reading for "CCCc1nnc(SCC2=C(C(=O)O)N3C(=O)[C@@H](NC(=O)Cc4ccc(C(=N)N)cc4)[C@H]3SC2)s1" : 101.85

FaSSIF Stability, % remaining, 6h reading for "Cn1c(SCC2=C(C(=O)O)N3C(=O)[C@@H](NC(=O)Cc4ccccc4CN)[C@H]3SC2)nnc(O)c1=O" : 96.2

FaSSIF Stability, % remaining, 6h reading for "CC=CC(=O)OCC1=C(C(=O)O)N2C(=O)[C@@H](NC(=O)C(=NO)c3cccs3)[C@H]2SC1" : 114.21

FaSSIF Stability, % remaining, 6h reading for "CCc1nnc(SCC2=C(C(=O)O)N3C(=O)[C@@H](NC(=O)Cc4ccc(C5=NCCN5)cc4)[C@H]3SC2)s1" : 98.8

FaSSIF Stability, % remaining, 6h reading for "CC(=O)OCC1=C(C(=O)O)N2C(=O)[C@@H](NC(=O)CSc3ccncc3)[C@H]2SC1" : 102.47
